These data points were gathered from paper PMC4039064.

# system_under_test: LGSK-3 (leishmanial Glycogen Synthase Kinase-3 short) (Leishmania donovani)
# Construct: recombinant, purified from L. donovani over-expressing transfectants (homologous expression); A6N857 is printed for the L. donovani homology model and alignment
# Sequence (A6N857 1-355): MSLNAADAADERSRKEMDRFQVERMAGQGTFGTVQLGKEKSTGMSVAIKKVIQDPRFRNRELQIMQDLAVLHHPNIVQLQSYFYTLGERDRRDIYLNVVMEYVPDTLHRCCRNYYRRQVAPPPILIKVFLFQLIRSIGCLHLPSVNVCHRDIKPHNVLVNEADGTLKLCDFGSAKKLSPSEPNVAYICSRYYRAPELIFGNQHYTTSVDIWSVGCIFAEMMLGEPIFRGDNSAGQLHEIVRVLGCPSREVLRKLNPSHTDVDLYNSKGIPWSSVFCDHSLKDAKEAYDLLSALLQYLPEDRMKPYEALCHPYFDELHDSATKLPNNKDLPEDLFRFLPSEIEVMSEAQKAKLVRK
# run_description: luminescent kinase assay (Promega)
# measurement_context: read-out: L GSK-3
pIC50: −log10 of the molar value.
measurement_kind: pIC50

INSERT INTO results (smiles_code, reported) VALUES
  ('Cc1cc2c(cc1Br)NC(=O)C2=C1Nc2ccccc2C1=NO', 7.05);
